B1: scFv; the commonest letter at each place (parent)
chain 1: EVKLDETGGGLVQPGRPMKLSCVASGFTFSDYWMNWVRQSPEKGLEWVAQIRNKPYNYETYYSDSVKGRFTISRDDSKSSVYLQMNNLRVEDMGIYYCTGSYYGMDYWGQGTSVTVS
chain 2: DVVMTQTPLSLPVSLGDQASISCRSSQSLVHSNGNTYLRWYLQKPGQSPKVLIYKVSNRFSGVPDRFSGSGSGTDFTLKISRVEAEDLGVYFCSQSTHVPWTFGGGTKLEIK

# Variants of: B1
# Experimental Protocol: Kd (Tite-Seq)
# Experimental Parameters: with fluorescein; format: scFv 4-4-20, heavy + light
pKd: −log10 of the molar value.
Observable: pKd

Exercise: Quick one: pKd for chain 1 S30P N35V ?
Key: ≤ 5.00

Exercise: Now the variant chain 1 D31R Y32D
Key: ≤ 5.00

Exercise: Same for chain 1 G100F D106K
Key: ≤ 5.00

Exercise: Record: chain 1 F29K M34F
Key: 7.63

Exercise: Also need chain 1 S30G M34R , thanks.
Key: 8.70

Exercise: Also need chain 1 Y32Q , thanks.
Key: ≤ 5.00

Exercise: Again, but for chain 1 W33A V37W
Key: ≤ 5.00

Exercise: Record: chain 1 G100F G109V
Key: ≤ 5.00

Exercise: Now try chain 1 Y103P M105K .
Key: ≤ 5.00

Exercise: Request: chain 1 W108P G109A
Key: 5.49

Exercise: Then this variant: chain 1 F29P D31A M34A
Key: ≤ 5.00

Exercise: Thanks! And chain 1 G104A D106Q Y107E ?
Key: ≤ 5.00

Exercise: Request: chain 1 Y102L D106W
Key: ≤ 5.00

Exercise: Next variant: chain 1 D106A W108M
Key: ≤ 5.00

Exercise: And then chain 1 Y102F G109N , what is it?
Key: ≤ 5.00

Exercise: Similarly, chain 1 S101H W108C ?
Key: ≤ 5.00

Exercise: Same question, chain 1 D31Q W36V this time
Key: ≤ 5.00

Exercise: Cool, now chain 1 M34Y N35R
Key: ≤ 5.00

Exercise: For chain 1 F29V V37G then?
Key: 5.22

Exercise: Consider next the variant chain 1 T28W V37C in the same way.
Key: 8.89

Exercise: Param item: chain 1 D31Q Y32R V37Q
Key: ≤ 5.00

Exercise: Same thing, different variant: chain 1 Y103M M105N
Key: 5.94

Exercise: Also chain 1 F29W W36Y , if possible.
Key: ≤ 5.00
